- Test system: Metabotropic glutamate receptor 4 (Homo sapiens)
- Test method notes: human mGluR4 response to M1 antagonist hits, M1 allosteric modulator project, cell-based, antagonist mode, secondary assay 1 (AID 678);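 further: raw unnormalized fluorescence span taken in the window right after glutamate addition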
- Details: CHO-mGluR4 calcium flux, Fluo-4 fluorescence, glutamate EC80; at 10 µM; stronger effect = lower value
In all, about 1,700 compounds went through this assay and about 15 (0.9%) were called active. Not all results are given here.
For each of the molecules below, state its fluorescence response (max-min).
Form: value (number only, do not type unit).

For record "COc1cccc2sc(Nc3nc(C)c(C(C)=O)s3)nc12" the listed fluorescence response (max-min) is 200

For record "Cc1cccc(N2CCN(Cc3c(C)n(C)n(-c4ccccc4)c3=O)CC2)c1C" the listed fluorescence response (max-min) is 223

For record "COc1cccc(OCCOc2cccc(/C=N/n3cnnc3)c2)c1" the listed fluorescence response (max-min) is 210

For record "O=C(c1ccc(-n2cnnn2)cc1)N1CCN(C(c2ccccc2)c2ccccc2)CC1" the listed fluorescence response (max-min) is 242

For record "O=C(NC1=NCCS1)c1ccc(Cl)s1" the listed fluorescence response (max-min) is 158

For record O=C(C(NS(=O)(=O)c1cccc2nsnc12)c1ccccc1)N1CCN(c2ccccn2)CC1 (stereo not drawn) the listed fluorescence response (max-min) is 228

For record "CCC/C(O)=C1\C(=O)CC(C)(C)CC1=Nc1ccccc1OC" the listed fluorescence response (max-min) is 272

For record "CCN1C(=O)/C(=C2\SC(N3CCCCC3)=NC2=O)c2ccccc21" the listed fluorescence response (max-min) is 235

For record "Cc1nc2ccccc2c2oc(C(=O)NCCCN3CCC(C)CC3)cc12" the listed fluorescence response (max-min) is 185

For record "CC1=Nn2c(nnc2-c2ccccc2)SC1" the listed fluorescence response (max-min) is 162

For record "Cc1c(C)c2cc3c4c(oc3c(C)c2oc1=O)CCCC4" the listed fluorescence response (max-min) is 174

For record "COc1ccc(S(=O)(=O)Nc2ccc3c(c2)OCO3)cc1Cl" the listed fluorescence response (max-min) is 202

For record CSc1nnc2c(n1)OC(c1ccsc1)N(C(C)=O)c1ccccc1-2 (stereo not drawn) the listed fluorescence response (max-min) is 247

For record "Cc1ccc(-c2noc(CCC(=O)Nc3ccccc3N3CCN(C)CC3)n2)cc1" the listed fluorescence response (max-min) is 218

For record "CCn1c(=N)n(CC(=O)c2cccc(OC)c2)c2ccccc21" the listed fluorescence response (max-min) is 268

For record "CCOC(=O)N1CCN(CC(=O)Nc2cc(C)nn2-c2nc3ccccc3s2)CC1" the listed fluorescence response (max-min) is 255

For record CN1CCN(CC(=O)Nc2sc3c(c2C#N)CCC(C(C)(C)C)C3)CC1 (stereo not drawn) the listed fluorescence response (max-min) is 231

For record "CCCCN(CCCC)C(=O)CCS(=O)(=O)c1ccc2c(c1)n(C)c(=O)c(=O)n2C" the listed fluorescence response (max-min) is 272

For record "COc1ccccc1OCCOc1ccc(/C=N/n2cnnc2)cc1" the listed fluorescence response (max-min) is 239

For record "Cc1ccsc1-c1nc(CSCC(=O)NCCN2CCCC2)c(C)o1" the listed fluorescence response (max-min) is 246

For record "CCOc1ccccc1C(=O)NCCCn1ccnc1" the listed fluorescence response (max-min) is 200

For record "CCOC(=O)c1c(-c2ccc(C)cc2C)csc1NC(=O)CSc1nnnn1C" the listed fluorescence response (max-min) is 167

For record CCC(C)(NC(=O)c1ccccn1)C(=O)NC1CCCCC1 (stereo not drawn) the listed fluorescence response (max-min) is 237

Hey, just so you know, these numbers are from PubChem BioAssay AID678.
